- assayed system: recombinant human HPK1 (Homo sapiens (Human))
- Sequence (Q92918 whole entry): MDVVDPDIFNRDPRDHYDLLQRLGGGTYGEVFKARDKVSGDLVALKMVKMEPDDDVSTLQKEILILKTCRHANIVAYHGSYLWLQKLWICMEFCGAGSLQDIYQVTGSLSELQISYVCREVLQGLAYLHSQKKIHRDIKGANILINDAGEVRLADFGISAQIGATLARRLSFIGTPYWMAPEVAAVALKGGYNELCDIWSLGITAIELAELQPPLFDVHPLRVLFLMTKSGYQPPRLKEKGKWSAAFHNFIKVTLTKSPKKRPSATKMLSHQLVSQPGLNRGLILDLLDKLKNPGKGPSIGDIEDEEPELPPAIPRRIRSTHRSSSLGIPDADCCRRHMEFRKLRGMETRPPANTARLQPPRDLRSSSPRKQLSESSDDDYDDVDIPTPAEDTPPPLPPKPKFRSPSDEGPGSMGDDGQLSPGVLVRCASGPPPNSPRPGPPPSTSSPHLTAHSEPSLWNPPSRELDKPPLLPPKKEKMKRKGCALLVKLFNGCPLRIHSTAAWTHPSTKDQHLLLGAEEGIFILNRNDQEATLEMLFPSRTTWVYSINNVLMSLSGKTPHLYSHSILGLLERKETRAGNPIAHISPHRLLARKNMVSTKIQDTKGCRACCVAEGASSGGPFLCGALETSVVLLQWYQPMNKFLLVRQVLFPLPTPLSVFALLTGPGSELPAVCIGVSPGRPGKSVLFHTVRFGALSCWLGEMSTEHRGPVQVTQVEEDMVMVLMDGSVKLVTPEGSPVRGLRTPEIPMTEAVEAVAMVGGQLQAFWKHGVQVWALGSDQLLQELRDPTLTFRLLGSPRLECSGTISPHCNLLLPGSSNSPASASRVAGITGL
- assay name: HPK1 kinase assay (ADP-Glo)
- condition parameters: 25 μM ATP, MBP substrate

{"compound": "O=C(Nc1cn2cc(-c3c(Cl)ccc4[nH]ncc34)ccc2n1)C1CC1 [Example 223]", "IC50": "< 0.1 µM"}
{"compound": "O=C(Nc1cn2cc(-c3c(Br)c(F)cc4[nH]ncc34)ccc2n1)C1CC1 [Example 231]", "IC50": "> 1 µM"}
{"compound": "CN1CCN(c2c(F)c(Cl)c(-c3ccn4nc(NC(=O)[C@@H]5C[C@@H]5F)cc4c3)c3cn[nH]c23)C1=O [Example 623]", "IC50": "< 0.1 µM"}
{"compound": "Cc1noc(-c2c(F)c(Cl)c(-c3ccc4nc(NC(=O)[C@@H]5C[C@@H]5F)cn4c3)c3cn[nH]c23)n1 [Example 364]", "IC50": "< 0.1 µM"}

All values here come from patent US11649255B2.
